system name: rat α4β2 nAChR subtype (Rattus norvegicus, UniProt P09483+P12390)
Construct: Preparation of membranes from rat cortex; from tissue; host or cells: rat cerebral cortex membranes
Sequence (P09483 31-630): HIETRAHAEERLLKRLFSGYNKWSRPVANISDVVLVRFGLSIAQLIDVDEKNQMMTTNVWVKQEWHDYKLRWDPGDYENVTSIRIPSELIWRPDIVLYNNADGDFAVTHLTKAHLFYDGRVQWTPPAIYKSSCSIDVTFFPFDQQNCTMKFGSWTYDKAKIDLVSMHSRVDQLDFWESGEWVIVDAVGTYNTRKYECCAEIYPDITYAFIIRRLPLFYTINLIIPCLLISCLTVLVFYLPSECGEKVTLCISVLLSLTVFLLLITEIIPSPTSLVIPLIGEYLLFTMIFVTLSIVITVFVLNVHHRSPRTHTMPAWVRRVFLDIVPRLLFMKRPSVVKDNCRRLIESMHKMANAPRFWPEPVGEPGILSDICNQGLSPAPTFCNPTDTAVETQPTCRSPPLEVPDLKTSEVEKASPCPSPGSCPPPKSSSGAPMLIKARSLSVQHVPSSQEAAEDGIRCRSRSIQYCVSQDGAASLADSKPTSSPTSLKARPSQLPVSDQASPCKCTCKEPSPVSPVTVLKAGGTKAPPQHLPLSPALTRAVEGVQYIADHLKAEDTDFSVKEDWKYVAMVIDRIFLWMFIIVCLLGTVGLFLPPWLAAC
Sequence (P12390 25-500): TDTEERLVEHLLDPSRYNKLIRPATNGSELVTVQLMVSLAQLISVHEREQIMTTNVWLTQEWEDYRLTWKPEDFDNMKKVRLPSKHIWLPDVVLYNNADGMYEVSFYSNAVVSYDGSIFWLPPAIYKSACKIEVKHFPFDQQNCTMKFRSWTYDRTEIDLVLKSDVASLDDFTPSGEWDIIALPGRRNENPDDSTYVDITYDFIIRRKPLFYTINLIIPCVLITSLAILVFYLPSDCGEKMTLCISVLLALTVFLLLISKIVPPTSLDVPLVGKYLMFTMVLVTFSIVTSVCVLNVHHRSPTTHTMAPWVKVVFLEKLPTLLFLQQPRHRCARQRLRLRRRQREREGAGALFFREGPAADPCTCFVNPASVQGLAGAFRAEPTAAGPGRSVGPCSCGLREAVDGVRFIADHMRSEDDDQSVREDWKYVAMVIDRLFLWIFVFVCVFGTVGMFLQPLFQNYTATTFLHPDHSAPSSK
test name: Radioligand binding ([3H]nicotine) at rat α4β2 nAChR, rat cortex membranes
reported conditions: read-out: Rat α4β2 Ki
measure: log10 Ki (log10 of the value in nM)

INSERT INTO measurements (compound, system_name, measure, measured) VALUES
  ('O=C(C1CCCC1)N1C[C@@H]2CN[C@@H](C2)C1', 'rat α4β2 nAChR subtype (Rattus norvegicus, UniProt P09483+P12390)', 'log10 Ki', 2.11),
  ('O=C(C1CC1)N1C[C@H]2CN[C@H](C2)C1', 'rat α4β2 nAChR subtype (Rattus norvegicus, UniProt P09483+P12390)', 'log10 Ki', -0.30),
  ('O=C(C1CC12CCC2)N1C[C@@H]2CN[C@@H](C2)C1 (stereo partly drawn)', 'rat α4β2 nAChR subtype (Rattus norvegicus, UniProt P09483+P12390)', 'log10 Ki', 0.48),
  ('O=C(C1CC1)N1C[C@@H]2CN[C@@H](C2)C1', 'rat α4β2 nAChR subtype (Rattus norvegicus, UniProt P09483+P12390)', 'log10 Ki', 1.15),
  ('C=CCNC(=S)N1C[C@@H]2CN[C@@H](C2)C1', 'rat α4β2 nAChR subtype (Rattus norvegicus, UniProt P09483+P12390)', 'log10 Ki', 4.00),
  ('CC(C)(C)C(=O)N1C[C@H]2CN[C@H](C2)C1', 'rat α4β2 nAChR subtype (Rattus norvegicus, UniProt P09483+P12390)', 'log10 Ki', 1.83),
  ('O=C(C1CC=CC1)N1CC2CNC(C2)C1 (stereo not drawn)', 'rat α4β2 nAChR subtype (Rattus norvegicus, UniProt P09483+P12390)', 'log10 Ki', 1.04),
  ('CN1C[C@H]2C[C@@H]1CN(C(=O)C1CC1)C2', 'rat α4β2 nAChR subtype (Rattus norvegicus, UniProt P09483+P12390)', 'log10 Ki', 1.28),
  ('CC1(C)CC1C(=O)N1C[C@@H]2CN[C@@H](C2)C1 (stereo partly drawn)', 'rat α4β2 nAChR subtype (Rattus norvegicus, UniProt P09483+P12390)', 'log10 Ki', 1.69);

Measured values drawn from patent US20110263629A1 for this set.
